Just for reference, BigSolDB 2.1 is where these values come from.

- ASSAY_SETUP: in ethyl acetate, 293.15 K

- SMI: "Nc1cccc2ccccc12"
  solubility (mole fraction): 0.66

###

- ASSAY_SETUP: in n-butyl acetate, 273.15 K
RESULT_TYPE: solubility (mole fraction)

- SMI: "Nc1cccc2ccccc12"
  RESULT_TYPE: "solubility (mole fraction)"
  VALUE_MEASURED: 0.441

###

- ASSAY_SETUP: in methanol, 308.15 K
RESULT_TYPE: solubility (mole fraction)

- SMI: "Nc1cccc2ccccc12"
  VALUE_MEASURED: 0.845

###

- ASSAY_SETUP: in isobutanol, 273.15 K

- SMI: "Nc1cccc2ccccc12"
  solubility (mole fraction): 0.0584

###

- ASSAY_SETUP: in ethanol, 283.15 K

- SMI: "Nc1cccc2ccccc12"
  solubility (mole fraction): 0.231

###

- ASSAY_SETUP: in ethyl acetate, 303.15 K
RESULT_TYPE: solubility (mole fraction)

- SMI: "Nc1cccc2ccccc12"
  VALUE_MEASURED: 0.788

###

- ASSAY_SETUP: in n-propanol, 293.15 K

- SMI: "Nc1cccc2ccccc12"
  solubility (mole fraction): 0.365

###

- ASSAY_SETUP: in n-heptane, 298.15 K

- SMI: "Nc1cccc2ccccc12"
  solubility (mole fraction): 0.0205

###

- ASSAY_SETUP: in acetone, 293.15 K
RESULT_TYPE: solubility (mole fraction)

- SMI: "Nc1cccc2ccccc12"
  VALUE_MEASURED: 0.724

###

- ASSAY_SETUP: in acetonitrile, 303.15 K
RESULT_TYPE: solubility (mole fraction)

- SMI: "Nc1cccc2ccccc12"
  VALUE_MEASURED: 0.829

###

- ASSAY_SETUP: in n-butanol, 293.15 K

- SMI: "Nc1cccc2ccccc12"
  solubility (mole fraction): 0.353

###

- ASSAY_SETUP: in cyclohexane, 298.15 K

- SMI: "Nc1cccc2ccccc12"
  solubility (mole fraction): 0.0263

###

- ASSAY_SETUP: in n-propanol, 308.15 K
RESULT_TYPE: solubility (mole fraction)

- SMI: "Nc1cccc2ccccc12"
  RESULT_TYPE: "solubility (mole fraction)"
  VALUE_MEASURED: 0.838

###

- ASSAY_SETUP: in ethyl acetate, 283.15 K

- SMI: "Nc1cccc2ccccc12"
  solubility (mole fraction): 0.57

###

- ASSAY_SETUP: in n-butanol, 298.15 K
RESULT_TYPE: solubility (mole fraction)

- SMI: "Nc1cccc2ccccc12"
  RESULT_TYPE: "solubility (mole fraction)"
  VALUE_MEASURED: 0.487

###

- ASSAY_SETUP: in ethanol, 293.15 K

- SMI: "Nc1cccc2ccccc12"
  solubility (mole fraction): 0.431

###

- ASSAY_SETUP: in acetone, 283.15 K

- SMI: "Nc1cccc2ccccc12"
  solubility (mole fraction): 0.636

###

- ASSAY_SETUP: in ethyl acetate, 288.15 K

- SMI: "Nc1cccc2ccccc12"
  solubility (mole fraction): 0.611

###

- ASSAY_SETUP: in ethanol, 288.15 K

- SMI: "Nc1cccc2ccccc12"
  solubility (mole fraction): 0.323

###

- ASSAY_SETUP: in n-heptane, 278.15 K

- SMI: "Nc1cccc2ccccc12"
  solubility (mole fraction): 0.0073

###

- ASSAY_SETUP: in n-propanol, 298.15 K
RESULT_TYPE: solubility (mole fraction)

- SMI: "Nc1cccc2ccccc12"
  RESULT_TYPE: "solubility (mole fraction)"
  VALUE_MEASURED: 0.512

###

- ASSAY_SETUP: in isopropanol, 293.15 K
RESULT_TYPE: solubility (mole fraction)

- SMI: "Nc1cccc2ccccc12"
  VALUE_MEASURED: 0.294

###

- ASSAY_SETUP: in n-heptane, 273.15 K
RESULT_TYPE: solubility (mole fraction)

- SMI: "Nc1cccc2ccccc12"
  VALUE_MEASURED: 0.00549

###

- ASSAY_SETUP: in isobutanol, 278.15 K
RESULT_TYPE: solubility (mole fraction)

- SMI: "Nc1cccc2ccccc12"
  VALUE_MEASURED: 0.0819

###

- ASSAY_SETUP: in ethanol, 308.15 K

- SMI: "Nc1cccc2ccccc12"
  solubility (mole fraction): 0.833

###

- ASSAY_SETUP: in n-heptane, 308.15 K

- SMI: "Nc1cccc2ccccc12"
  solubility (mole fraction): 0.0346

###

- ASSAY_SETUP: in cyclohexane, 293.15 K

- SMI: "Nc1cccc2ccccc12"
  solubility (mole fraction): 0.0185

###

- ASSAY_SETUP: in isopropanol, 303.15 K

- SMI: "Nc1cccc2ccccc12"
  solubility (mole fraction): 0.637

###

- ASSAY_SETUP: in ethyl acetate, 298.15 K
RESULT_TYPE: solubility (mole fraction)

- SMI: "Nc1cccc2ccccc12"
  VALUE_MEASURED: 0.728

###

- ASSAY_SETUP: in ethyl acetate, 308.15 K

- SMI: "Nc1cccc2ccccc12"
  solubility (mole fraction): 0.863

###

- ASSAY_SETUP: in n-butanol, 303.15 K
RESULT_TYPE: solubility (mole fraction)

- SMI: "Nc1cccc2ccccc12"
  RESULT_TYPE: "solubility (mole fraction)"
  VALUE_MEASURED: 0.664

###

- ASSAY_SETUP: in ethanol, 273.15 K
RESULT_TYPE: solubility (mole fraction)

- SMI: "Nc1cccc2ccccc12"
  RESULT_TYPE: "solubility (mole fraction)"
  VALUE_MEASURED: 0.133

###

- ASSAY_SETUP: in cyclohexane, 288.15 K
RESULT_TYPE: solubility (mole fraction)

- SMI: "Nc1cccc2ccccc12"
  RESULT_TYPE: "solubility (mole fraction)"
  VALUE_MEASURED: 0.014

###

- ASSAY_SETUP: in isobutanol, 303.15 K

- SMI: "Nc1cccc2ccccc12"
  solubility (mole fraction): 0.585

###

- ASSAY_SETUP: in methanol, 303.15 K
RESULT_TYPE: solubility (mole fraction)

- SMI: "Nc1cccc2ccccc12"
  VALUE_MEASURED: 0.703

###

- ASSAY_SETUP: in n-butanol, 308.15 K
RESULT_TYPE: solubility (mole fraction)

- SMI: "Nc1cccc2ccccc12"
  RESULT_TYPE: "solubility (mole fraction)"
  VALUE_MEASURED: 0.84

###

- ASSAY_SETUP: in ethanol, 303.15 K
RESULT_TYPE: solubility (mole fraction)

- SMI: "Nc1cccc2ccccc12"
  VALUE_MEASURED: 0.698

###

- ASSAY_SETUP: in n-propanol, 288.15 K

- SMI: "Nc1cccc2ccccc12"
  solubility (mole fraction): 0.256

###

- ASSAY_SETUP: in acetonitrile, 288.15 K
RESULT_TYPE: solubility (mole fraction)

- SMI: "Nc1cccc2ccccc12"
  VALUE_MEASURED: 0.658

###

- ASSAY_SETUP: in isobutanol, 283.15 K

- SMI: "Nc1cccc2ccccc12"
  solubility (mole fraction): 0.118

###

- ASSAY_SETUP: in methanol, 278.15 K
RESULT_TYPE: solubility (mole fraction)

- SMI: "Nc1cccc2ccccc12"
  VALUE_MEASURED: 0.245

###

- ASSAY_SETUP: in ethyl acetate, 273.15 K

- SMI: "Nc1cccc2ccccc12"
  solubility (mole fraction): 0.49

###

- ASSAY_SETUP: in isopropanol, 278.15 K

- SMI: "Nc1cccc2ccccc12"
  solubility (mole fraction): 0.0814

###

- ASSAY_SETUP: in isopropanol, 298.15 K

- SMI: "Nc1cccc2ccccc12"
  solubility (mole fraction): 0.461

###

- ASSAY_SETUP: in n-propanol, 273.15 K

- SMI: "Nc1cccc2ccccc12"
  solubility (mole fraction): 0.0925

###

- ASSAY_SETUP: in acetone, 288.15 K
RESULT_TYPE: solubility (mole fraction)

- SMI: "Nc1cccc2ccccc12"
  VALUE_MEASURED: 0.684

###

- ASSAY_SETUP: in acetonitrile, 308.15 K
RESULT_TYPE: solubility (mole fraction)

- SMI: "Nc1cccc2ccccc12"
  VALUE_MEASURED: 0.878

###

- ASSAY_SETUP: in n-propanol, 283.15 K

- SMI: "Nc1cccc2ccccc12"
  solubility (mole fraction): 0.181

###

- ASSAY_SETUP: in n-butyl acetate, 293.15 K

- SMI: "Nc1cccc2ccccc12"
  solubility (mole fraction): 0.645

###

- ASSAY_SETUP: in n-butanol, 273.15 K
RESULT_TYPE: solubility (mole fraction)

- SMI: "Nc1cccc2ccccc12"
  VALUE_MEASURED: 0.112

###

- ASSAY_SETUP: in cyclohexane, 308.15 K

- SMI: "Nc1cccc2ccccc12"
  solubility (mole fraction): 0.0621
